Listed here are compounds together with their documented t1/2.
# assay-overview: Comparison of absorption in rats after intragastric administration of free base and salt (plasma pharmacokinetics)
# Assay type: in vivo, SD rats
# condition-notes: SD rats, 20 μmol/kg, intragastric administration, plasma
# Experimental: The blood sample was centrifuged at 8000 RPM for 5 minutes, followed by the isolation of the upper plasma. […] 200 μL of the supernatant was taken and centrifuged again for 10 minutes. 50 μL of the supernatant was injected in a 96-well plate. The plasma drug concentration was determined by LC/MS/MS, and the corresponding pharmacokinetic parameters were calculated.
readout-kind: t1/2 (h)

INSERT INTO results (smi, readout_kind, unit_symbol, assay_value) VALUES
  ('C=C(F)C(=O)Nc1cc2c(Nc3ccc(F)c(Cl)c3)ncnc2cc1OCCCN1CCOCC1.O=C(O)[C@H](O)[C@@H](O)[C@H](O)[C@H](O)CO', 't1/2', 'h', 3.5572),
  ('C=C(F)C(=O)Nc1cc2c(Nc3ccc(F)c(Cl)c3)ncnc2cc1OCCCN1CCOCC1.Cl.O', 't1/2', 'h', 4.5078),
  ('C=C(F)C(=O)Nc1cc2c(Nc3ccc(F)c(Cl)c3)ncnc2cc1OCCCN1CCOCC1.O=S(=O)(O)c1ccccc1', 't1/2', 'h', 5.0897),
  ('C=C(F)C(=O)Nc1cc2c(Nc3ccc(F)c(Cl)c3)ncnc2cc1OCCCN1CCOCC1.O=S(=O)(O)CCS(=O)(=O)O', 't1/2', 'h', 3.744),
  ('C=C(F)C(=O)Nc1cc2c(Nc3ccc(F)c(Cl)c3)ncnc2cc1OCCCN1CCOCC1.O=S(=O)(O)O', 't1/2', 'h', 3.8468);

The values you see were collected from patent US10870627B2.
